target: human recombinant chemokine CCR8 receptor (Homo sapiens)
Sequence (P51685 whole entry): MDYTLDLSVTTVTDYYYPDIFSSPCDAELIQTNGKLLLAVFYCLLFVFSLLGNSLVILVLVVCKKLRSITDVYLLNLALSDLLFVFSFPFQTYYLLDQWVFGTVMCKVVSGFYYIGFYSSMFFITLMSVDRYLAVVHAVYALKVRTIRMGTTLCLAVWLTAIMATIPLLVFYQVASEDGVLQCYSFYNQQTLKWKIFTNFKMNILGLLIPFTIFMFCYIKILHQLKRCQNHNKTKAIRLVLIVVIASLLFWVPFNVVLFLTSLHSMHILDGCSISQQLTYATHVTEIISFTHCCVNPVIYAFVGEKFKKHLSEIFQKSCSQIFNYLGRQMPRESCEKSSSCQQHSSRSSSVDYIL
protocol notes: CCL1 SPA Binding Assay
measurement parameters: 125I CCL1 (30 pM) binding to membranes from CHO-K1 cells transfected with CCR8, Wheat Germ Agglutinin SPA beads; typical data
readout kind: IC50 (nM)

P = Cc1noc(C)c1COc1ccccc1CN1CCC2(CC1)CCN(C(=O)c1ccccc1)CC2 [trifluoroacetate]
Q = CCCOc1ccccc1CN1CCC2(CC1)CCN(C(=O)c1ccccc1)CC2 [trifluoroacetate]
Problem: Consider P and Q . Which of these has its IC50 at a higher number? Label of pick, please.
Result: P
(P: 710 nM, Q: 165 nM)
